Where do these numbers come from? They come from ChEMBL document CHEMBL1148447.

experiment: Area under the plasma concentration-time curve in rats after oral administration at 25 mg/kg; assay type: ADME, organism-based; design: dose 25 mg/kg, route oral; conditions: rat, read-out: AUC 0-infinity
Measure Name: AUC (nM·h)

Chem Smiles	Experimental Result
COc1ccc2c(O[C@@H]3C[C@H]4C(=O)N[C@]5(C(=O)O)C[C@H]5/C=C\CCCCC[C@H](NC(=O)OC(C)(C)C)C(=O)N4C3)cc(-c3ccccc3)nc2c1	200

----------
test system: Hepatitis C virus; assay: Inhibition of hepatitis C virus in a cell based HCV replicon assay.; format: functional, organism-based, Hepacivirus hominis
Rule: EC50 below 4 nM gives yes (1). Equal to or above 4 nM gives no (0).

Chem Smiles	Qualitative Label
COc1ccc2c(O[C@@H]3C[C@H]4C(=O)N[C@]5(C(=O)O)C[C@H]5/C=C\CCCCC[C@H](NC(=O)OC(C)(C)C)C(=O)N4C3)cc(-c3csc(N)n3)nc2c1	yes (1)
COc1ccc2c(O[C@@H]3C[C@H]4C(=O)N[C@]5(C(=O)O)C[C@H]5/C=C\CCCCC[C@H](NC(=O)OC(C)(C)C)C(=O)N4C3)cc(-c3csc(NC(C)=O)n3)nc2c1	no (0)
COc1ccc2c(O[C@@H]3C[C@H]4C(=O)N[C@]5(C(=O)O)C[C@H]5/C=C\CCCCC[C@H](NC(=O)OC(C)(C)C)C(=O)N4C3)cc(-n3cnc(C)c3)nc2c1	no (0)
COc1ccc2c(O[C@@H]3C[C@H]4C(=O)N[C@]5(C(=O)O)C[C@H]5/C=C\CCCCC[C@H](NC(=O)OC(C)(C)C)C(=O)N4C3)cc(-n3cccc3)nc2c1	no (0)
COc1ccc2c(O[C@@H]3C[C@H]4C(=O)N[C@]5(C(=O)O)C[C@H]5/C=C\CCCCC[C@H](NC(=O)OC5CCCC5)C(=O)N4C3)cc(-n3ccc(C)n3)nc2c1	yes (1)

----------
experiment: Inhibitory concentration against hepatitis C virus NS3 protease; set-up: species or system Hepacivirus hominis
Each entry below carries its recorded log10 IC50.
Measure Name: log10 IC50 (log10 of the value in nM)

Compound	log10 IC50
COc1ccc2c(O[C@@H]3C[C@H]4C(=O)N[C@]5(C(=O)O)C[C@H]5/C=C\CCCCC[C@H](NC(=O)OC5CCCC5)C(=O)N4C3)cc(-n3cccc3)nc2c1	0.56
C=C[C@@H]1C[C@]1(NC(=O)C1CC(Oc2ccnc3ccccc23)CN1C(=O)[C@@H](NC(=O)[C@@H](NC(C)=O)c1ccccc1)C(C)C)C(=O)O (single isomer, unassigned)	2.23
COc1ccc2c(O[C@@H]3C[C@H]4C(=O)N[C@]5(C(=O)O)C[C@H]5/C=C\CCCCC[C@H](NC(=O)OC5CCCC5)C(=O)N4C3)cc(-n3cccn3)nc2c1	0.34
COc1ccc2c(O[C@@H]3C[C@H]4C(=O)N[C@]5(C(=O)O)C[C@H]5/C=C\CCCCC[C@H](NC(=O)OC5CCCC5)C(=O)N4C3)cc(-c3csc(NC(C)C)n3)nc2c1 [CILUPREVIR]	0.48
C=C[C@@H]1C[C@]1(NC(=O)[C@@H]1C[C@@H](Oc2cc(-c3ccccc3)nc3ccccc23)CN1C(=O)[C@@H](NC(=O)[C@@H](NC(=O)[C@@H](CCC(=O)O)NC(=O)[C@H](CC(=O)O)NC(C)=O)c1ccccc1)C(C)(C)C)C(=O)O	-0.30
